biological target: TNF (Homo sapiens, UniProt P01375); assay: TNF-neutralization bioassay: TNF-induced cell death of LM cells (MTT); type: cell-based; conditions: compound 50 μM, TNF 20 ng/ml, actinomycin D, LM cells, 24 hours
Sequence (P01375 77-233 limits assumed): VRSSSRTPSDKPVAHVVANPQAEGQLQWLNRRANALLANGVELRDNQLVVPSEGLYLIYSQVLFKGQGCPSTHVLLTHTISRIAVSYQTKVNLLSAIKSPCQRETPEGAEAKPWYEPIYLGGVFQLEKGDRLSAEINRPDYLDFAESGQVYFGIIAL
Property: inhibition at 50 µM; scope: individual molecules
assay.endpoint: inhibition at 50 µM (%)

molecule: O=C(O)c1c(-c2cccc(F)c2)oc2ccc(Cl)cc2c1=O [Example 45]
subject.of.test: TNF (Homo sapiens, UniProt P01375)
assay.endpoint: inhibition at 50 µM
uom: %
numeric.result: 88.4

molecule: COc1ccc2c(=O)c(C(=O)O)c(-c3cccc(F)c3)oc2c1 [Example 1]
subject.of.test: TNF (Homo sapiens, UniProt P01375)
assay.endpoint: inhibition at 50 µM
uom: %
numeric.result: 39.1

molecule: Cc1cccc2c(=O)c(C(=O)O)c(-c3ccc(F)c(F)c3)oc12 [Example 64]
subject.of.test: TNF (Homo sapiens, UniProt P01375)
assay.endpoint: inhibition at 50 µM
uom: %
numeric.result: 47.2

molecule: Cc1cccc2c(=O)c(C(=O)O)c(-c3cc(F)cc(F)c3)oc12 [Example 47]
subject.of.test: TNF (Homo sapiens, UniProt P01375)
assay.endpoint: inhibition at 50 µM
uom: %
numeric.result: 21.4

molecule: Cc1cccc(-c2oc3cc(Cl)ccc3c(=O)c2C(=O)O)c1 [Example 28]
subject.of.test: TNF (Homo sapiens, UniProt P01375)
assay.endpoint: inhibition at 50 µM
uom: %
numeric.result: 34.9

---

Known melting point of a selection of compounds

compound: Cc1ccc2oc(-c3cccs3)c(C(=O)O)c(=O)c2c1 [Example 33]
melting point: 153 to 155 °C
//
compound: COc1cccc2c(=O)c(C(=O)O)c(-c3cccs3)oc12 [Example 12]
melting point: 196 to 198 °C
//
compound: Cc1cccc2c(=O)c(C(=O)O)c(-c3cc(F)cc(F)c3)oc12 [Example 47]
melting point: 243 to 244 °C
//
compound: O=C(O)c1c(-c2cccc(F)c2F)oc2ccc(Cl)cc2c1=O [Example 56]
melting point: ≥ 120 °C
//
compound: Cc1ccc2c(=O)c(C(=O)O)c(-c3cc(F)cc(F)c3)oc2c1 [Example 48]
melting point: 220 to 222 °C
//
compound: O=C(O)c1c(-c2cccc(F)c2)oc2cc(Cl)ccc2c1=O [Example 44]
melting point: 160 to 163 °C
//
compound: Cc1cccc(-c2oc3ccc(Cl)cc3c(=O)c2C(=O)O)c1 [Example 29]
melting point: 218 to 220 °C
//
compound: Cc1cccc2c(=O)c(C(=O)O)c(-c3cccc(F)c3F)oc12 [Example 52]
melting point: 167 to 169 °C
//
compound: Cc1cccc(-c2oc3ccccc3c(=O)c2C(=O)O)c1 [Example 19]
melting point: 162 to 164 °C
//
compound: COc1ccc(-c2oc3cc(C)ccc3c(=O)c2C(=O)O)cc1OC [Example 38]
melting point: 200 to 201 °C
//
compound: O=C(O)c1c(-c2ccc(Cl)cc2)oc2ccccc2c1=O [Example 73]
melting point: 212 to 213 °C
//
compound: O=C(O)c1c(-c2cc(F)cc(F)c2)oc2ccccc2c1=O [Example 17]
melting point: 208 to 209 °C
//
compound: COc1ccc(-c2oc3ccccc3c(=O)c2C(=O)O)cc1OC [Example 8]
melting point: 237 to 238 °C
//
compound: O=C(O)c1c(-c2cccs2)oc2ccc(Cl)cc2c1=O [Example 35]
melting point: 202 to 204 °C
//
compound: Cc1cccc2c(=O)c(C(=O)O)c(-c3cccs3)oc12 [Example 31]
melting point: 205 to 206 °C
//
compound: COc1ccc(-c2oc3cc(Cl)ccc3c(=O)c2C(=O)O)cc1OC [Example 39]
melting point: 226 to 227 °C
//
compound: O=C(O)c1c(-c2ccco2)oc2ccc(Cl)cc2c1=O [Example 23]
melting point: 196 to 198 °C
//
compound: COc1ccc2c(=O)c(C(=O)O)c(-c3cccs3)oc2c1 [Example 13]
melting point: 205 to 207 °C
//
compound: O=C(O)c1c(-c2ccc(F)c(F)c2)oc2ccc(Cl)cc2c1=O [Example 67]
melting point: 195 to 198 °C
//
compound: O=C(O)c1c(-c2cccs2)oc2cc(Cl)ccc2c1=O [Example 34]
melting point: 232 to 233 °C

---

biological target: TNF (Homo sapiens)
pKd: −log10 of the molar value.
assay.endpoint: pKd

substance.smiles: O=C(O)c1c(-c2cc(F)ccc2F)oc2cc(Cl)ccc2c1=O
assay.endpoint: pKd
numeric.result: 5.84

---

target: TNF (Homo sapiens, UniProt P01375); assay: TNF-neutralization bioassay: TNF-induced cell death of LM cells (MTT); assay type: cell-based; settings: compound 50 μM, TNF 20 ng/ml, actinomycin D, LM cells, 24 hours
In this section, each of the molecules is paired with its reported inhibition at 50 µM.
assay.endpoint: inhibition at 50 µM (%)

molecule: Cc1ccc2c(=O)c(C(=O)O)c(-c3cccs3)oc2c1 [Example 32]
subject.of.test: TNF (Homo sapiens, UniProt P01375)
uom: %
numeric.result: 23.6

molecule: O=C(O)c1c(-c2cccs2)oc2ccc(Cl)cc2c1=O [Example 35]
subject.of.test: TNF (Homo sapiens, UniProt P01375)
uom: %
numeric.result: 28.1

molecule: Cc1ccc2c(=O)c(C(=O)O)c(-c3cccc(F)c3F)oc2c1 [Example 53]
subject.of.test: TNF (Homo sapiens, UniProt P01375)
uom: %
numeric.result: 22.8

molecule: Cc1cccc(-c2oc3ccccc3c(=O)c2C(=O)O)c1 [Example 19]
subject.of.test: TNF (Homo sapiens, UniProt P01375)
uom: %
numeric.result: 48.3

molecule: Cc1cccc(-c2oc3ccc(C)cc3c(=O)c2C(=O)O)c1 [Example 27]
subject.of.test: TNF (Homo sapiens, UniProt P01375)
uom: %
numeric.result: 65.2

molecule: O=C(O)c1c(-c2cc(F)cc(F)c2)oc2ccccc2c1=O [Example 17]
subject.of.test: TNF (Homo sapiens, UniProt P01375)
uom: %
numeric.result: 71

molecule: O=C(O)c1c(-c2cc(F)cc(F)c2)oc2ccc(Cl)cc2c1=O [Example 50]
subject.of.test: TNF (Homo sapiens, UniProt P01375)
uom: %
numeric.result: 100

molecule: Cc1cccc2c(=O)c(C(=O)O)c(-c3ccco3)oc12 [Example 20]
subject.of.test: TNF (Homo sapiens, UniProt P01375)
uom: %
numeric.result: 59

molecule: Cc1ccc2oc(-c3cccc(F)c3F)c(C(=O)O)c(=O)c2c1 [Example 54]
subject.of.test: TNF (Homo sapiens, UniProt P01375)
uom: %
numeric.result: 26.5

molecule: Cc1ccc2c(=O)c(C(=O)O)c(-c3ccc(F)c(F)c3)oc2c1 [Example 65]
subject.of.test: TNF (Homo sapiens, UniProt P01375)
uom: %
numeric.result: 25.1

---

target: TNF (Homo sapiens, UniProt P01375); experiment: TNF-neutralization bioassay: TNF-induced cell death of LM cells (MTT); details: inhibition of TNF-induced LM cell death
Each entry below carries its recorded log10(IC50).
assay.endpoint: log10(IC50) (log10 of the value in µM)

substance.smiles: COc1cccc2c(=O)c(C(=O)O)c(-c3ccc(Cl)cc3)oc12
subject.of.test: TNF (Homo sapiens, UniProt P01375)
numeric.result: 1.72
//
substance.smiles: O=C(O)c1c(-c2cc(F)ccc2F)oc2ccc(Cl)cc2c1=O
subject.of.test: TNF (Homo sapiens, UniProt P01375)
numeric.result: 0.58
//
substance.smiles: O=C(O)c1c(-c2ccco2)oc2ccc(Br)cc2c1=O
subject.of.test: TNF (Homo sapiens, UniProt P01375)
numeric.result: 0.40
//
substance.smiles: O=C(O)c1c(-c2cc(F)ccc2F)oc2ccc(Br)cc2c1=O
subject.of.test: TNF (Homo sapiens, UniProt P01375)
numeric.result: 1.57
//
substance.smiles: O=C(O)c1c(-c2ccc(Cl)cc2)oc2ccc(Br)cc2c1=O
subject.of.test: TNF (Homo sapiens, UniProt P01375)
numeric.result: 1.32
//
substance.smiles: COc1ccc(-c2oc3ccc(Br)cc3c(=O)c2C(=O)O)cc1OC
subject.of.test: TNF (Homo sapiens, UniProt P01375)
numeric.result: 2.09
//
substance.smiles: O=C(O)c1c(-c2cccc(F)c2)oc2ccc(Br)cc2c1=O
subject.of.test: TNF (Homo sapiens, UniProt P01375)
numeric.result: 1.46
//
substance.smiles: O=C(O)c1c(-c2cccc(F)c2F)oc2ccc(Br)cc2c1=O
subject.of.test: TNF (Homo sapiens, UniProt P01375)
numeric.result: 1.01
//
substance.smiles: O=C(O)c1c(-c2cc(F)cc(F)c2)oc2ccccc2c1=O
subject.of.test: TNF (Homo sapiens, UniProt P01375)
numeric.result: 0.40
//
substance.smiles: O=C(O)c1c(-c2cccc(F)c2F)oc2cc(Cl)ccc2c1=O
subject.of.test: TNF (Homo sapiens, UniProt P01375)
numeric.result: 1.53
//
substance.smiles: O=C(O)c1c(-c2cc(F)cc(F)c2)oc2ccc(Cl)cc2c1=O
subject.of.test: TNF (Homo sapiens, UniProt P01375)
numeric.result: 0.71
